tested-target: T1, human vascular endothelial growth factor receptor-2 Fc chimera (KDR-Fc) (human, UniProt P35968 20-764)
T1 construct: range 1-764; also called human VEGFR-2; not shown: human IgG1 Fc
T1 sequence (P35968 20-764 limits assumed, change not shown, form in doubt): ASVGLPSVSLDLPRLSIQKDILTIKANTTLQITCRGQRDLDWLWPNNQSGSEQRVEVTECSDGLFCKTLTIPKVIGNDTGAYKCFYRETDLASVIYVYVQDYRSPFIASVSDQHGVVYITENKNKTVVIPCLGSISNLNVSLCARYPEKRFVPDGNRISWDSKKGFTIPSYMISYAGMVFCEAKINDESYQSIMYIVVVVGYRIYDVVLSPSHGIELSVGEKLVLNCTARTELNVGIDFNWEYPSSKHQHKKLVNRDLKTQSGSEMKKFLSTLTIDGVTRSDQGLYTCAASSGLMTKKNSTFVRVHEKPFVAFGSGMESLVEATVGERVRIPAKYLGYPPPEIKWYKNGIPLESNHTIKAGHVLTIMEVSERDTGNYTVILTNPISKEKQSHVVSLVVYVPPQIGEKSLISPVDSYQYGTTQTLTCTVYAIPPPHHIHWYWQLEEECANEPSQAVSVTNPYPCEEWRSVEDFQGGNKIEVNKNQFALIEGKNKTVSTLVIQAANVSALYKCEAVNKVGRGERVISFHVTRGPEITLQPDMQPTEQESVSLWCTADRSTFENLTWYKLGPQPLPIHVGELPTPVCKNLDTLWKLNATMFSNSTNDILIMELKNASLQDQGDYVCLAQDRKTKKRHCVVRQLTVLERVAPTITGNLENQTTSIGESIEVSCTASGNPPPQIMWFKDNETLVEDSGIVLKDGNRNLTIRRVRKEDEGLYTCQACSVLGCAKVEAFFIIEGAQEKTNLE
experiment-notes: radioactive equilibrium binding, 1 nM KDR-Fc, % of input
measured-metric: Binding to 1 nM KDR, % (%)

Answered examples (3):
{"binder": "3F10 PR3 (designed binder) EVVAATPTSLLISWRHPHFPTRYYRITYGETGGNSPVQEFTVPLQPPTATISGLKPGVDYTITVYAVTLAQDDHELLTPISINYRT", "Binding to 1 nM KDR, % (%)": 16}
{"binder": "2′Del A2 PR4 (designed binder) EVVAATPTSLLISWRHPHFPTRYYRITYGETGGNSPVQEFTVPLQPPTATISGLKPGVDYTITVYAVTGGRNGHTLLTPISINYRT", "Binding to 1 nM KDR, % (%)": 17}
{"binder": "1′DelH12 PR4 (designed binder) EVVAATPTSLLISWRHPHFPTRYYRITYGETGGNSPVQEFTVPLQPPTATISGLKPGVDYTITVYAVTVAQNERELFTPISINYRT", "Binding to 1 nM KDR, % (%)": 18}

a = 3′G2 PR4 (designed binder) EVVAATPTSLLISWRHPHFPTRYYRITYGETGGNSPVQEFTVPLQPPTATISGLKPGVDYTITVYAVTLAQNGHELITPISINYRT
b = 2′Del B2 PR4 (designed binder) EVVAATPTSLLISWRHPHFPTRYYRITYGETGGNSPVQEFTVPLQPPTATISGLKPGVDYTITVYAVTTGWNGNELFTPISINYRT
Query string: Between these two entries, a and b , state which has the higher Binding to 1 nM KDR, %. Field: selected label. Fill in the label of the entry you choose.
Result string: b
